# procedure.details: in vivo
# cond: mouse, iv

| molecule | scale.unit | AUC(0-inf) |
| --- | --- | --- |
| O=C(O)c1ccc(CN2CCC(CN[C@@H]3C[C@H]3c3ccccc3)CC2)cc1 [GSK-2879552] | ng·h/mL | 4420 |

----------
# procedure.details: in vivo
# cond: mouse, iv
quantity.kind: half-life (h)

| molecule | quantity.kind | scale.unit | observed.measurement |
| --- | --- | --- | --- |
| O=C(O)c1ccc(CN2CCC(CN[C@@H]3C[C@H]3c3ccccc3)CC2)cc1 [GSK-2879552] | half-life | h | 4.36 |

----------
# procedure.details: in vivo
# cond: mouse, iv
quantity.kind: Vd (L/kg)

| smiles.structure | scale.unit | observed.measurement |
| --- | --- | --- |
| O=C(O)c1ccc(CN2CCC(CN[C@@H]3C[C@H]3c3ccccc3)CC2)cc1 | L/kg | 2.18 |

----------
# procedure.details: in vivo
# cond: mouse, po
quantity.kind: AUC(0-inf) (µg·h/mL)

| smiles.structure | quantity.kind | scale.unit | observed.measurement |
| --- | --- | --- | --- |
| O=C(O)c1ccc(CN2CCC(CN[C@@H]3C[C@H]3c3ccccc3)CC2)cc1 | AUC(0-inf) | µg·h/mL | 5.36 |

----------
# procedure.details: in vivo
# cond: mouse, po

| smiles.structure | bioavailability, % |
| --- | --- |
| O=C(O)c1ccc(CN2CCC(CN[C@@H]3C[C@H]3c3ccccc3)CC2)cc1 | 60.7 |

----------
# procedure.details: in vivo
# cond: mouse, iv

| smiles.structure | clearance / mL/min/kg |
| --- | --- |
| O=C(O)c1ccc(CN2CCC(CN[C@@H]3C[C@H]3c3ccccc3)CC2)cc1 | 37.7 |

----------
# procedure.details: in vivo
# cond: mouse, iv
quantity.kind: AUC(0-t)

| smiles.structure | observed.measurement |
| --- | --- |
| O=C(O)c1ccc(CN2CCC(CN[C@@H]3C[C@H]3c3ccccc3)CC2)cc1 | 4410 ng·h/mL |

----------
log10 Vd listing for selected compounds.
# procedure.details: Pharmacokinetic experiment in mouse
# cond: plasma, iv, 10 mg/kg
quantity.kind: log10 Vd (log10 of the value in L/kg)

| compound | quantity.kind | observed.measurement |
| --- | --- | --- |
| O=C(OCC1CCN(Cc2ccccc2)CC1)N1CCC(F)(CN[C@@H]2C[C@H]2c2ccccc2)CC1 [(1R,2S)-A90] | log10 Vd | 0.78 |
| O=C(OCC1CCN(Cc2ccccc2)CC1)N1CCC(F)(CN[C@@H]2C[C@H]2c2ccccc2)CC1 (relative stereo) [Example A90] | log10 Vd | 1.17 |
| O=C(OCC1CCNCC1)N1CCC(F)(CN[C@@H]2C[C@H]2c2ccccc2)CC1 [(1R,2S)-A43] | log10 Vd | 1.27 |
| O=C(OCC1CCNCC1)N1CCC(F)(CN[C@@H]2C[C@H]2c2ccccc2)CC1 (relative stereo) [Example A43] | log10 Vd | 1.15 |
| O=C(OCc1ccccc1)N1CCC(F)(CNC2CC2c2ccccc2)CC1 (stereo not shown) | log10 Vd | 0.41 |
| FC1(CN[C@@H]2C[C@H]2c2ccccc2)CCNCC1 (relative stereo) | log10 Vd | 1.14 |
| N[C@H]1CC[C@](F)(CNC2CC2c2ccccc2)CC1 (stereo partly shown) | log10 Vd | 1.71 |
